target: T1, recombinant LC3C (biolayer interferometry) (UniProt Q9BXW4 1-126); test: BLI; biotin-LIR peptides (50 µg/ml) on streptavidin biosensors, Atg8-family protein in solution at different concentrations; Octet Red 96; 25°C; global fit, 1:1 model; settings: both partners purified
T1 construct: LC3C; construct of the BLI experiment not described; source: recombinant
T1 sequence (Q9BXW4 1-126): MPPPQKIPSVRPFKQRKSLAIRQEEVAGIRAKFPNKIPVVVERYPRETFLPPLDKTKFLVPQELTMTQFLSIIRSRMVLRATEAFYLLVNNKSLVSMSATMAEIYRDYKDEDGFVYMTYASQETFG
pKd: −log10 of the molar value. Ends that are not written are not given here.
observed-property: pKd

>>> print(df.to_string())
                                     binder  meas_value
0  ETDLGTDWENLPSPRF (also: biotin label, place not given here) [biotin-labeled 16-mer ATG14 LIR peptide]        5.23
